Data credit: patent US6451736B1

Test system: Solanum
ASSAY COMMENT: Pre-emergence test/greenhouse
Format: in vivo
STATED CONDITIONS: Table B, 30 g/ha, after three weeks
MEASURED QUANTITY: degree of damage, Solanum (%)

>>> reported("CC(C)Oc1cc(-n2nc3n(c2=O)CCCC3)c(F)cc1C(N)=S [Example 17]")
100
>>> reported("COCCOCCOc1cc(-n2nc(C)n(C(F)F)c2=O)c(F)cc1C(N)=S [Example 51]")
100
>>> reported("CCOc1cc(N2C(=O)C3CCCCN3C2=O)c(F)cc1C(N)=S (stereo not shown) [Example 47]")
100
>>> reported("C#CC(C)Oc1cc(-n2nc(C(F)(F)F)n(C)c2=O)c(F)cc1C(N)=S (stereo not shown) [Example 32]")
100

---

Reported degree of damage, Matricaria values for a set of compounds
Test system: Matricaria
ASSAY COMMENT: Pre-emergence test/greenhouse
Assay type: in vivo
STATED CONDITIONS: Table A, 125 g/ha, after three weeks
MEASURED QUANTITY: degree of damage, Matricaria

>>> reported("CCS(=O)(=O)Nc1cc(-n2nc(C(F)F)n(C)c2=S)c(F)cc1C(N)=S [Example 3]")
"100%"
>>> reported("CCN(CC)CC.CCS(=O)(=O)Nc1cc(-n2nc(C)n(NC)c2=O)c(F)cc1C(N)=S [Example 7]")
"95%"
>>> reported("C#CC(C)Oc1cc(-n2nc(C(F)F)n(C)c2=S)c(F)cc1C(N)=S (stereo not shown) [Example 6]")
"95%"
>>> reported("CCn1c(C(F)(F)F)nn(-c2cc(NS(=O)(=O)CC)c(C(N)=S)cc2F)c1=O [Example 5]")
"90%"

---

System: Chenopodium
ASSAY COMMENT: Pre-emergence test/greenhouse
Type: in vivo
STATED CONDITIONS: Table B, 60 g/ha, after three weeks
degree of damage, Chenopodium values, listed per item
MEASURED QUANTITY: degree of damage, Chenopodium

>>> reported("CCS(=O)(=O)Nc1cc(-n2nc(C(F)F)n(C)c2=S)c(F)cc1C(N)=S")
"100%"
>>> reported("CCS(=O)(=O)Nc1cc(-n2c(=O)cc(C(F)(F)F)n(C)c2=S)c(F)cc1C(N)=S")
"100%"
>>> reported("CCS(=O)(=O)Nc1cc(-n2nc(C(F)F)n(C)c2=O)c(F)cc1C(N)=S")
"100%"
>>> reported("Cn1c(C(F)F)nn(-c2cc(F)c(C(N)=S)cc2F)c1=S")
"100%"
>>> reported("Cn1c(C(F)(F)F)nn(-c2cc(NS(C)(=O)=O)c(C(N)=S)cc2F)c1=S")
"100%"
>>> reported("Cn1c(C(F)(F)F)cc(=O)n(-c2cc(NS(C)(=O)=O)c(C(N)=S)cc2F)c1=S")
"100%"
>>> reported("CCS(=O)(=O)Nc1cc(-n2nc(C3CC3)n(C)c2=O)c(F)cc1C(N)=S")
"100%"
>>> reported("CC(C)Oc1cc(N2C(=O)C3CCCCN3C2=O)c(F)cc1C(N)=S (centres unmarked)")
"100%"

---

System: Solanum
ASSAY COMMENT: Post-emergence test/greenhouse
Format: in vivo
STATED CONDITIONS: Table C, 15 g/ha, after three weeks
Procedure: To produce a suitable preparation of active compound, 1 part by weight of active compound is mixed with the stated amount of solvent, the stated amount of emulsifier is added and the concentrate is diluted with water to the desired concentration. Test plants which have a height of 5-15 cm are sprayed with the preparation of active compound in such a way as to apply the particular amounts of active compound desired per unit area. […]
Listing: degree of damage, Solanum of selected molecules
MEASURED QUANTITY: degree of damage, Solanum (%)

>>> reported("CCS(=O)(=O)Nc1cc(-n2nc(C3CC3)n(C)c2=O)c(F)cc1C(N)=S [Example 13]")
100
>>> reported("CCn1c(C(F)(F)F)nn(-c2cc(NS(=O)(=O)CC)c(C(N)=S)cc2F)c1=O [Example 5]")
100
>>> reported("COCCOCCOc1cc(-n2nc(C)n(C(F)F)c2=O)c(F)cc1C(N)=S [Example 51]")
100
>>> reported("Cn1c(C(F)(F)F)nn(-c2cc(NS(C)(=O)=O)c(C(N)=S)cc2F)c1=S [Example 34]")
100
>>> reported("CCS(=O)(=O)Nc1cc(-n2nc3n(c2=O)CCCC3)c(F)cc1C(N)=S [Example 1]")
100
>>> reported("Cn1c(C(F)(F)F)cc(=O)n(-c2cc(NS(C)(=O)=O)c(C(N)=S)cc2F)c1=S [Example 26]")
50
